Each item that follows carries a reported residual activity.
target system: MARK4 (human) (UniProt Q96L34)
Sequence (Q96L34 whole entry, looked up): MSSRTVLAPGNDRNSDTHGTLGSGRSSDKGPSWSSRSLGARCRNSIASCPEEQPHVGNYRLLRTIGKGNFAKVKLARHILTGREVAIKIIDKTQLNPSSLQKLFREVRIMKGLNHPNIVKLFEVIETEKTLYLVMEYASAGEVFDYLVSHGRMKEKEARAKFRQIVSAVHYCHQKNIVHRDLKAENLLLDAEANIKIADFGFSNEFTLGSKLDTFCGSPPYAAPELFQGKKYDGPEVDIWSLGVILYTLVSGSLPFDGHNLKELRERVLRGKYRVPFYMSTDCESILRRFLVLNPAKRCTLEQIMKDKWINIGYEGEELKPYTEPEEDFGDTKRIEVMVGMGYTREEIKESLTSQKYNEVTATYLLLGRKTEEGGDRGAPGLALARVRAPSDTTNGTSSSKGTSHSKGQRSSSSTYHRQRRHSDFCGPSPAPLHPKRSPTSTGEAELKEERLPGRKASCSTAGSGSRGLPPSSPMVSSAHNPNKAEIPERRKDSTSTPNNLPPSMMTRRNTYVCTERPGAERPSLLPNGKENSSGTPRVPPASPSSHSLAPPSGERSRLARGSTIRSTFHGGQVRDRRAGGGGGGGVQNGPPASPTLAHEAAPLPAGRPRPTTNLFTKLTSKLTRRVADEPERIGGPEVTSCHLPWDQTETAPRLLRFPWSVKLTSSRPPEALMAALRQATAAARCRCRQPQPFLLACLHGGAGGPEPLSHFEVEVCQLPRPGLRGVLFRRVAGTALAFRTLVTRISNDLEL
method: radiometric filter-binding kinase assay, Kinase HotSpot
experimental context: compound 0.5 µM; ATP 10 µM
The response must be a number in % with no trailing unit.

[[record]]
compound_smiles = "CO[C@@H]1[C@H](N(C)C(=O)c2ccccc2)C[C@H]2O[C@]1(C)n1c3ccccc3c3c4c(c5c6ccccc6n2c5c31)C(=O)NC4"
property_name = "residual activity"
experimental_value = 3.16

[[record]]
compound_smiles = "COc1cc2ncnc(Nc3ccc(OCc4ccccc4)cc3)c2cc1OC"
property_name = "residual activity"
experimental_value = 99.5


Incoming: Need residual activity of O=C(c1cc2cc(O)ccc2[nH]1)c1cc2cc(O)ccc2[nH]1 , thanks.
Outgoing: 55.3

Incoming: Similarly, CC(C)(C)c1cc(C=C(C#N)C#N)cc(Br)c1O ?
Outgoing: 103

Incoming: What do you have for Fc1ccc(-c2nc3n(c2-c2ccncc2)CCS3)cc1 ?
Outgoing: 106

Incoming: What about this molecule? O=C1C(Cl)=C(N2C(=O)CCC2=O)C(=O)c2ccccc21
Outgoing: 99.6

These data points were gathered from the kinase profiling compilation of Christmann-Franck et al. (2016).
